The reported measurements were obtained from patent US7081349B1.

Target: Xenopus high-affinity melatonin receptor (Xenopus laevis, UniProt P49219)
Sequence (P49219 whole entry): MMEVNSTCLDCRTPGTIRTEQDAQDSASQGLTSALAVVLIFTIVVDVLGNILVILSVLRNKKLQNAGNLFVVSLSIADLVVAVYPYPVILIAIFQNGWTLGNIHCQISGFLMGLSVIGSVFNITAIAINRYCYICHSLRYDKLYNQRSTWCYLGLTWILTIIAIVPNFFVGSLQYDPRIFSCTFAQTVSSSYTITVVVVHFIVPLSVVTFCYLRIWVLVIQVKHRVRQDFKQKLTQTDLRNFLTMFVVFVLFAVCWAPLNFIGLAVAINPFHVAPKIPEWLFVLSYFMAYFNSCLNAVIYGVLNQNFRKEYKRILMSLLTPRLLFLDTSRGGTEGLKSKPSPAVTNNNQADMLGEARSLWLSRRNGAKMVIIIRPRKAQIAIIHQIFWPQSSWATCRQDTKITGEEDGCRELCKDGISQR
Assay: 125I-melatonin saturation and competition binding, whole COS-7 cells transiently expressing Xenopus receptor cDNA
Conditions: saturation 5 to 1280 pM; COS-7 cells, Xenopus receptor; n=3 experiments; read-out: Kd of 125I-melatonin (Scatchard analysis)
pKd: −log10 of the molar value.
Reported Property: pKd

- Compound: "COc1ccc2[nH]c(I)c(CCNC(C)=O)c2c1 [^125I-melatonin, 2-[^125I]-iodomelatonin]"
  Readout Value: 10.20

----------
Target: Xenopus high-affinity melatonin receptor (Xenopus laevis, UniProt P49219)
Assay: 125I-melatonin saturation and competition binding, whole COS-7 cells transiently expressing Xenopus receptor cDNA
Set-up: expressed in transfected cells; host or cells: COS-7 cells, transient, pcDNAI
pKi: −log10 of the molar value.

- Smiles Input: "COc1ccc2[nH]c(I)c(CCNC(C)=O)c2c1"
  pKi: 9.96

----------
Target: Xenopus high-affinity melatonin receptor (Xenopus laevis)
Assay: Inhibition of forskolin-stimulated cAMP accumulation in CHO cells stably transfected with Xenopus receptor cDNA
Details: manual curve fitting of FIG. 12; 10 μM forskolin; CHO cells, Xenopus receptor
pIC50: −log10 of the molar value.

- Compound: "COc1ccc2[nH]cc(CCNC(C)=O)c2c1 [melatonin]"
  pIC50: "~9.10"

----------
Form field: Ki (one value per entry).
Molecular target: Xenopus high-affinity melatonin receptor (Xenopus laevis)
Test: 125I-melatonin saturation and competition binding, whole COS-7 cells transiently expressing Xenopus receptor cDNA
Design: expressed in transfected cells; host or cells: COS-7 cells, transient, pcDNAI
Conditions: 100 pM 125I-melatonin; COS-7 cells, Xenopus receptor; representative of three experiments; read-out: Ki, competition for 125I-melatonin binding
Method: Three days after transfection, medium was removed, the culture dishes were washed with PBS, and the cells were harvested. The cells were then pelleted (2500 rpm; 10 min, 4° C.) and stored at −80° C. Whole cell binding studies were performed by thawing the cells and resuspending them in binding buffer (50 mM Tris-HCl, pH 7.4, with 5 mM MgCl2) at a concentration of 456 μg protein 1 ml. […] Binding data were analyzed by computer using the LIGAND Program of Munson and Rodbard ((1980) supra). […]
Reported Property: Ki (nM)

- Compound: "CC(=O)NCCc1c[nH]c2ccc(O)cc12 [NAS, N-acetyl-5-hydroxytryptamine]"
  Reported Property: "Ki"
  Rel: "="
  Readout Value: 2000
- Compound: "COc1cc2c(CCNC(C)=O)c[nH]c2cc1Cl"
  Reported Property: "Ki"
  Rel: "="
  Readout Value: 3
- Compound: "COc1cc2c(CCNC(C)=O)c[nH]c2cc1O [6-hydroxymelatonin]"
  Reported Property: "Ki"
  Rel: "="
  Readout Value: 20
- Compound: "NCCc1c[nH]c2ccc(O)cc12 [5-HT, 5-hydroxytryptamine]"
  Reported Property: "Ki"
  Rel: ">"
  Readout Value: 100000
- Compound: "COc1ccc2[nH]cc(CCNC(C)=O)c2c1"
  Reported Property: "Ki"
  Rel: "="
  Readout Value: 1.3

----------
Below, each of the molecules is paired with its reported Ki value.
Target: human Mel-1a receptor (Homo sapiens)
Construct: expressed in transfected cells; host or cells: COS-1 cells, transient, pcDNA3; crude membrane homogenates
Sequence (P48039 whole entry): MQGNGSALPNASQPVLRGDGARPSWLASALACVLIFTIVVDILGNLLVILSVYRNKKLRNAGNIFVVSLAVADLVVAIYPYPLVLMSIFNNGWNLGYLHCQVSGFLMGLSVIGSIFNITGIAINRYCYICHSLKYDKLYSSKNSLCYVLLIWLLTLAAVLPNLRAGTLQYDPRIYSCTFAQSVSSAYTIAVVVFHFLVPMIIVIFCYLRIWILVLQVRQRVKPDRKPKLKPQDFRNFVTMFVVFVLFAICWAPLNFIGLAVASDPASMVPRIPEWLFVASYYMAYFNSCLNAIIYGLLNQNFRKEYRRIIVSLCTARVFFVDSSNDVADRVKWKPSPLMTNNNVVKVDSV
Experiment: 125I-Mel saturation and competition binding, membranes of COS-1 cells transfected with human Mel-1a receptor cDNA
Conditions: 100 pM 125I-Mel, mean ± SE of 3-5 experiments

- Molecule: "COc1ccc2[nH]c(-c3ccccc3)c(CCNC(C)=O)c2c1"
  Unit Of Measurement: "nM"
  Rel: "="
  Ki: 0.21
- Molecule: "NCCc1c[nH]c2ccc(O)cc12 [5-HT, 5-hydroxytryptamine]"
  Unit Of Measurement: "nM"
  Rel: ">"
  Ki: 10000
- Molecule: "CC(=O)NCCc1c[nH]c2ccc(O)cc12 [NAS, N-acetyl-5-hydroxytryptamine]"
  Unit Of Measurement: "nM"
  Rel: "="
  Ki: 986

----------
Biological target: sheep high-affinity melatonin 1a receptor (Ovis aries)
Construct: expressed in transfected cells; host or cells: COS-7 cells, transient, pcDNAI, DEAE-dextran
Assay: 125I-melatonin saturation and competition binding, whole COS-7 cells transfected with sheep receptor cDNA

- Smiles Input: "COc1ccc2[nH]c(I)c(CCNC(C)=O)c2c1"
  Ki, nM: 0.037

----------
Molecular target: sheep high-affinity melatonin 1a receptor (Ovis aries)
Construct: expressed in transfected cells; host or cells: COS-7 cells, transient, pcDNAI, DEAE-dextran
Test: 125I-melatonin saturation and competition binding, whole COS-7 cells transfected with sheep receptor cDNA
Conditions: 100 pM 125I-Mel; COS-7 cells, sheep receptor; one-site model; read-out: Ki, competition for 125I-Mel binding
Experimental: Data shown are representative of three experiments. […] The data shown are representative of at least three experiments. For ligand binding studies, the sheep receptor cDNA (SEQ ID NO:3) in pcDNAI was introduced into COS-7 cells using the DEAE-dextran method (Cullen, B. R. Methods Enzymol. (1987) 152:684-704). […] The cells were then pelleted (2500 rpm; 10 min, 4° C.) and stored at −80° C. […] Binding data were analyzed by computer using the LIGAND Program of Munson and Rodbard (1980).
Recorded Ki values for a group of molecules are listed next.

- Molecule: "COc1cc2c(CCNC(C)=O)c[nH]c2cc1O [6-hydroxymelatonin]"
  Unit Of Measurement: "nM"
  Rel: "="
  Ki: 3
- Molecule: "NCCc1c[nH]c2ccc(O)cc12 [5-HT, 5-hydroxytryptamine]"
  Unit Of Measurement: "nM"
  Rel: ">"
  Ki: 100000
- Molecule: "COc1cc2c(CCNC(C)=O)c[nH]c2cc1Cl"
  Unit Of Measurement: "nM"
  Rel: "="
  Ki: 0.25
- Molecule: "CC(=O)NCCc1c[nH]c2ccc(O)cc12 [NAS, N-acetyl-5-hydroxytryptamine]"
  Unit Of Measurement: "nM"
  Rel: "="
  Ki: 140

----------
Molecular target: sheep high-affinity melatonin 1a receptor (Ovis aries, UniProt P48040)
Construct: expressed in transfected cells; host or cells: COS-7 cells, transient, pcDNAI, DEAE-dextran
Sequence (P48040 whole entry): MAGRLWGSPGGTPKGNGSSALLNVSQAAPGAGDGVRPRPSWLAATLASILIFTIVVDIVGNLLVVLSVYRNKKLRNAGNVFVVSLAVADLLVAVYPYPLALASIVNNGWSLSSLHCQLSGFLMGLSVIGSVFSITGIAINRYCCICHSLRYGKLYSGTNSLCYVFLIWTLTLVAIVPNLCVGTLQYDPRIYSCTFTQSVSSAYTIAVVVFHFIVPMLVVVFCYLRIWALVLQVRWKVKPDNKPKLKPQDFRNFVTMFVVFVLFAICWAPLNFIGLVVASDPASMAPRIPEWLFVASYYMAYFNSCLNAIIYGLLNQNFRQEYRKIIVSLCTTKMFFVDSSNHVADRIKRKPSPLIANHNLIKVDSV
Test: 125I-melatonin saturation and competition binding, whole COS-7 cells transfected with sheep receptor cDNA
Settings: FIG. 14a inset; COS-7 cells, sheep receptor; representative experiment; read-out: Ki value for the sheep receptor from Scatchard plot of saturation data
Method: Data shown are representative of three experiments. […] The data shown are representative of at least three experiments. For ligand binding studies, the sheep receptor cDNA (SEQ ID NO:3) in pcDNAI was introduced into COS-7 cells using the DEAE-dextran method (Cullen, B. R. Methods Enzymol. (1987) 152:684-704). […] The cells were then pelleted (2500 rpm; 10 min, 4° C.) and stored at −80° C. […] Binding data were analyzed by computer using the LIGAND Program of Munson and Rodbard (1980).

- Compound: "COc1ccc2[nH]c(I)c(CCNC(C)=O)c2c1 [^125I-melatonin, 2-[^125I]-iodomelatonin]"
  Ki / nM: 0.036
